Measured pKd accompanies every entry in the list below.
Target: T1, FGFR3-IIIc (human, UniProt P22607 23-375, limits assumed)
T1 construct: also called human FGFR3-IIIc
T1 sequence: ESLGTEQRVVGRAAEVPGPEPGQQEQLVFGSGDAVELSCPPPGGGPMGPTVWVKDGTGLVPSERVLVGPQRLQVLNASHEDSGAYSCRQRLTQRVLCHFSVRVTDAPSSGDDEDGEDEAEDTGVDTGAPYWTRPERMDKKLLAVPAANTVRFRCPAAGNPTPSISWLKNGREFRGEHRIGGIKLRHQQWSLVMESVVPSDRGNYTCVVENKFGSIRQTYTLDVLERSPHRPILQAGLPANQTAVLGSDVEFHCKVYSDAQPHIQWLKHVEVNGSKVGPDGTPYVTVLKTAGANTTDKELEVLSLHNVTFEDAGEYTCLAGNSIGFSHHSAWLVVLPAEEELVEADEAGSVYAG
Experiment: surface plasmon resonance (Biacore)
# reply with the number alone; pKd is -log10 of concentration in mol/L

2B.1.1.6 (antibody, human IgG1, kappa, V domains shown, Full IgG1/kappa chains) VH: EVQLVESGGGLVQPGGSLRLSCAASGFTFTSTGISWVRQAPGKGLEWVGRYWAWDGSTNYADSVKGRFTISADTSKNTAYLQMNSLRAEDTAVYYCARTYGIYDTYDEYTEYVMDYWGQGTLVTVSS VL: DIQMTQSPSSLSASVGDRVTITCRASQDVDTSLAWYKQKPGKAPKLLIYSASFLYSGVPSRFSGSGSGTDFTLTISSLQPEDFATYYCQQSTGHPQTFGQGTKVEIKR : 10.10

Prompt: Report pKd for 2B1.1.8 (antibody, V domains shown) VH: EVQLVESGGGLVQPGGSLRLSCAASGFPFTSLGISWVRQAPGKGLEWVGRYWAWDGSTNYADSVKGRFTISADTSKNTAYLQMNSLRAEDTAVYYCARTYGIYDIYEKYTEYVMDYWGQGTLVTVSS VL: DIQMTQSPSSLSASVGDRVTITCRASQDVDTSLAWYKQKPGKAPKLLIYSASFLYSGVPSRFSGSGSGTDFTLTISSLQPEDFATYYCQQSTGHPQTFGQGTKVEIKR
Response: 9.95

Prompt: Report pKd for 2B.1.3 (antibody, human IgG1, kappa, V domains shown, Full IgG1/kappa chains; also called Mab 2B.1.3) VH: EVQLVESGGGLVQPGGSLRLSCAASGFTFTSTGISWVRQAPGKGLEWVGRTHLGDGSTNYADSVKGRFTISADTSKNTAYLQMNSLRAEDTAVYYCARTYGIYDLYVDYTEYVMDYWGQGTLVTVSS VL: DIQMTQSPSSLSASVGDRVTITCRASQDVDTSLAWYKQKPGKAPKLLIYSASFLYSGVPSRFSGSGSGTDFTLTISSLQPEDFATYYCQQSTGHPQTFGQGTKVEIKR
Response: 10.08

Cited source: patent US20160244525A1
